// provenance: patent US11542263B2

# experimental.details: Solubility in aqueous buffers and simulated fluids, 24 h, HPLC
# Assay type: physicochemical
# condition.details: 22.5 °C, pH 1.8, simulated gastric fluid, thermodynamic from solid; SGF, initial pH 1.80; ~20-25° C., ~24 h; read-out: Measured Conc. (solubility)
quantity: solubility at 24 h (µg/mL)
Answers are plain numbers, in µg/mL.

[
  {
    "compound": "CC(C)(O)c1cnn2c(-c3ccc(F)c(-c4c(F)cccc4C#N)c3)cnc2n1.O=P(O)(O)O [Phosphate Polymorphic Form A]",
    "solubility at 24 h, µg/mL": 3.85
  }
]

Now consider the entry below.
Per the records, this compound ( CC(C)(O)c1cnn2c(-c3ccc(F)c(-c4c(F)cccc4C#N)c3)cnc2n1 [Free Base Polymorphic Form A] ) has solubility at 24 h equal to 1.38

----------
# experimental.details: Canine pharmacokinetics
# Format: in vivo, Beagle dogs
# condition.details: male, beagle, plasma; dog, PO 2 mg/kg, mean
quantity: Tmax (h)
Give bare numbers, in h.

# Tmax (compound: CC(C)(O)c1cnn2c(-c3ccc(F)c(-c4c(F)cccc4C#N)c3)cnc2n1.O=P(O)(O)O [Phosphate Polymorphic Form A] ) is 3.33

----------
# experimental.details: Approximate solubility of TPA023B in organic solvents
# Assay type: physicochemical
# condition.details: organic solvent or mixture, thermodynamic from solid; Acetone, 50° C.
quantity: solubility

Memo: CC(C)(O)c1cnn2c(-c3ccc(F)c(-c4c(F)cccc4C#N)c3)cnc2n1 [TPA023B] , reported solubility: < 50 mg/mL

----------
# experimental.details: Approximate solubility of TPA023B in organic solvents
# Type: physicochemical
# condition.details: organic solvent or mixture, thermodynamic from solid; Toluene, 50° C.
quantity: solubility

Reported solubility ( CC(C)(O)c1cnn2c(-c3ccc(F)c(-c4c(F)cccc4C#N)c3)cnc2n1 [TPA023B] ) = < 50 mg/mL

----------
# experimental.details: Approximate solubility of TPA023B in organic solvents
# Assay type: physicochemical
# condition.details: aqueous with cosolvent or surfactant or cyclodextrin, thermodynamic from solid; Acetone/H2O (1/1, v/v), 50° C.
quantity: solubility

For CC(C)(O)c1cnn2c(-c3ccc(F)c(-c4c(F)cccc4C#N)c3)cnc2n1 [TPA023B] the molecule record lists solubility as < 50 mg/mL

----------
# experimental.details: Canine pharmacokinetics
# Format: in vivo, Beagle dogs
# condition.details: male, beagle, plasma; dog, IV 1 mg/kg, mean
quantity: AUC(0-t) (ng·h/mL)
Answers are plain numbers, in ng·h/mL.

AUC(0-t) in this record for CC(C)(O)c1cnn2c(-c3ccc(F)c(-c4c(F)cccc4C#N)c3)cnc2n1.O=P(O)(O)O [Phosphate Polymorphic Form A] : 7850

----------
# experimental.details: Canine pharmacokinetics
# Assay type: in vivo, Beagle dogs
# condition.details: male, beagle, plasma; dog, PO 2 mg/kg, mean
quantity: AUC(0-inf) (ng·h/mL)
Give bare numbers, in ng·h/mL.

Lab note: CC(C)(O)c1cnn2c(-c3ccc(F)c(-c4c(F)cccc4C#N)c3)cnc2n1.O=P(O)(O)O [Phosphate Polymorphic Form A] gave AUC(0-inf) of 13900

----------
# experimental.details: Approximate solubility of TPA023B Phosphate in solvents (stepwise solvent addition)
# Assay type: physicochemical
# condition.details: organic solvent or mixture, thermodynamic from solid; DCM, 50° C.
quantity: solubility

Looking up CC(C)(O)c1cnn2c(-c3ccc(F)c(-c4c(F)cccc4C#N)c3)cnc2n1.O=P(O)(O)O [Phosphate Polymorphic Form A] , I see its solubility listed as 10 to 50 mg/mL

----------
# experimental.details: Approximate solubility of TPA023B Phosphate in solvents (stepwise solvent addition)
# Type: physicochemical
# condition.details: organic solvent or mixture, thermodynamic from solid; DCM, RT
quantity: solubility

Lab book: solubility of CC(C)(O)c1cnn2c(-c3ccc(F)c(-c4c(F)cccc4C#N)c3)cnc2n1.O=P(O)(O)O [Phosphate Polymorphic Form A] noted as 8000 to 10000 µg/mL

----------
# experimental.details: Canine pharmacokinetics
# Type: in vivo, Beagle dogs
# condition.details: male, beagle, plasma; dog, PO 2 mg/kg, mean
quantity: half-life (h)
Answers are plain numbers, in h.

Reported half-life for CC(C)(O)c1cnn2c(-c3ccc(F)c(-c4c(F)cccc4C#N)c3)cnc2n1.O=P(O)(O)O [Phosphate Polymorphic Form A] was 12.2

----------
# experimental.details: Approximate solubility of TPA023B Phosphate in solvents (stepwise solvent addition)
# Format: physicochemical
# condition.details: organic solvent or mixture, thermodynamic from solid; MTBE, RT
quantity: solubility

Briefly, solubility measured for CC(C)(O)c1cnn2c(-c3ccc(F)c(-c4c(F)cccc4C#N)c3)cnc2n1.O=P(O)(O)O [Phosphate Polymorphic Form A] : < 2000 µg/mL

----------
# experimental.details: Approximate solubility of TPA023B in organic solvents
# Assay type: physicochemical
# condition.details: organic solvent or mixture, thermodynamic from solid; MEK, 50° C.
# Protocol: About 25 mg of compound (TPA023B) was added to a 2.0 mL vial containing 0.5 mL of each organic solvent in Table 14, which was then sealed. The mixtures were stirred-mixed at 800 rpm, RT (25° C.) for 4 hours. After that, if the compound was not completely dissolved in the solvent, the mixture was then stirred-mixed at 800 rpm, 50° C. overnight. If the final mixture was clear solution, the solution would be evaporated by vacuum drying oven at 35° C. and the resulted solid would be checked by XRPD. […]
quantity: solubility

The recorded solubility for CC(C)(O)c1cnn2c(-c3ccc(F)c(-c4c(F)cccc4C#N)c3)cnc2n1 [TPA023B] is < 50 mg/mL

----------
# experimental.details: Pharmacokinetics in rats
# Format: in vivo, Sprague-dawley rats
# condition.details: male, Sprague-Dawley, plasma; rat, IV 1 mg/kg, mean
quantity: half-life (h)
Numbers only, in h.

For reference, reported half-life for CC(C)(O)c1cnn2c(-c3ccc(F)c(-c4c(F)cccc4C#N)c3)cnc2n1.O=P(O)(O)O [Phosphate Polymorphic Form A] stands at 12.4

----------
# experimental.details: Approximate solubility of TPA023B Phosphate in solvents (stepwise solvent addition)
# Type: physicochemical
# condition.details: organic solvent or mixture, thermodynamic from solid; Ethanol, RT
quantity: solubility

// field: solubility; key: CC(C)(O)c1cnn2c(-c3ccc(F)c(-c4c(F)cccc4C#N)c3)cnc2n1.O=P(O)(O)O [Phosphate Polymorphic Form A] ; value = < 8000 µg/mL

----------
# experimental.details: Approximate solubility of TPA023B in organic solvents
# Assay type: physicochemical
# condition.details: 25 °C, organic solvent or mixture, thermodynamic from solid; THF, RT
quantity: solubility at 4 h

// field: solubility at 4 h; key: CC(C)(O)c1cnn2c(-c3ccc(F)c(-c4c(F)cccc4C#N)c3)cnc2n1 [TPA023B] ; value = < 50 mg/mL

----------
# experimental.details: Approximate solubility of TPA023B in organic solvents
# Type: physicochemical
# condition.details: water, thermodynamic from solid; H2O, 50° C.
# Protocol: About 25 mg of compound (TPA023B) was added to a 2.0 mL vial containing 0.5 mL of each organic solvent in Table 14, which was then sealed. The mixtures were stirred-mixed at 800 rpm, RT (25° C.) for 4 hours. After that, if the compound was not completely dissolved in the solvent, the mixture was then stirred-mixed at 800 rpm, 50° C. overnight. If the final mixture was clear solution, the solution would be evaporated by vacuum drying oven at 35° C. and the resulted solid would be checked by XRPD. […]
quantity: solubility

The measured solubility associated with CC(C)(O)c1cnn2c(-c3ccc(F)c(-c4c(F)cccc4C#N)c3)cnc2n1 [TPA023B] reads < 50 mg/mL

----------
# experimental.details: Approximate solubility of TPA023B in organic solvents
# Type: physicochemical
# condition.details: 25 °C, organic solvent or mixture, thermodynamic from solid; 1,4-Dioxane, RT
# Procedure: About 25 mg of compound (TPA023B) was added to a 2.0 mL vial containing 0.5 mL of each organic solvent in Table 14, which was then sealed. The mixtures were stirred-mixed at 800 rpm, RT (25° C.) for 4 hours. After that, if the compound was not completely dissolved in the solvent, the mixture was then stirred-mixed at 800 rpm, 50° C. overnight. If the final mixture was clear solution, the solution would be evaporated by vacuum drying oven at 35° C. and the resulted solid would be checked by XRPD. […]
quantity: solubility at 4 h

get_value(item= CC(C)(O)c1cnn2c(-c3ccc(F)c(-c4c(F)cccc4C#N)c3)cnc2n1 [TPA023B] , readout=solubility at 4 h) returns < 50 mg/mL

----------
# experimental.details: Approximate solubility of TPA023B Phosphate in solvents (stepwise solvent addition)
# Format: physicochemical
# condition.details: organic solvent or mixture, thermodynamic from solid; DMSO, RT
# Description: The total amount of solvent was recorded to calculate the approximate solubility in these solvents.
quantity: solubility

solubility recorded for this compound, CC(C)(O)c1cnn2c(-c3ccc(F)c(-c4c(F)cccc4C#N)c3)cnc2n1.O=P(O)(O)O [Phosphate Polymorphic Form A] , is > 100 mg/mL
